# Assay system: COX-1 (Ovis aries, UniProt P05979)
# Construct: gene PTGS1; homodimer
# Sequence (P05979 25-600): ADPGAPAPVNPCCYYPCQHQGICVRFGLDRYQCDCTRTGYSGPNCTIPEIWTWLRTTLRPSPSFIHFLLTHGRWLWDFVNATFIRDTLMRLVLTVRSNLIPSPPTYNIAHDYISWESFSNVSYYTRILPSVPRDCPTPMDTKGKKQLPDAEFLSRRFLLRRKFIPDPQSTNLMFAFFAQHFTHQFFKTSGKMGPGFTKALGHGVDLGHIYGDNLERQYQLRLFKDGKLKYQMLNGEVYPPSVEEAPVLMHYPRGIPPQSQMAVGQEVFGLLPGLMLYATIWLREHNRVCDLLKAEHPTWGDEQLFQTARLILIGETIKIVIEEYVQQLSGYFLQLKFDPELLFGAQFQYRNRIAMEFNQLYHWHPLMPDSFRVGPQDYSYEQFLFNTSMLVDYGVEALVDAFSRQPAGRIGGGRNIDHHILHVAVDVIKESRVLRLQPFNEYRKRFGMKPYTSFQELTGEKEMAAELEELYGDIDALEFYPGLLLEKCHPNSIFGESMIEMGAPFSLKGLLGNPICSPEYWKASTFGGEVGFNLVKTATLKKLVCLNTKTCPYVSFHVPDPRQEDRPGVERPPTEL
# Protocol details: colorimetric COX peroxidase inhibitor screening kit, […] nm
# Assay type: biochemical
# Condition parameters: tested at 100 µM only, 2 min, RT; unreliable
Outcome: Condition met for Cyclooxygenase Inhibition Assay IC50 [μM] / COX-1 of at least 80 µM; Condition not met for anything lower.

CCCCn1c(C)c2c(c1C)C(=O)N(CN1CCC(O)(Cc3ccccc3)CC1)C2=O [2p]; Condition met
CCCCn1c(C)c2c(c1C)C(=O)N(CN1CCN(CCO)CC1)C2=O [2j]; Condition met
CCCCn1c(C)c2c(c1C)C(=O)N(CN1CCC(c3ccccc3)CC1)C2=O [2m]; Condition met
Cc1c2c(c(C)n1-c1ccccc1)C(=O)N(CN1CCN(c3ccccc3C#N)CC1)C2=O [2c]; Condition met
Cc1c2c(c(C)n1-c1ccccc1)C(=O)N(CN1CCOCC1)C2=O [2l]; Condition met

State whether the measured Cyclooxygenase Inhibition Assay IC50 [μM] / COX-1 reaches 80 µM, counting equality as reaching it, for Cc1c2c(c(C)n1-c1ccccc1)C(=O)N(CN1CCN(c3ccc(Br)cc3)CC1)C2=O [2a]
Condition met

Please check the record Cc1c2c(c(C)n1-c1ccccc1Cl)C(=O)N(CN1CCN(c3ccc(Br)cc3)CC1)C2=O [2b] and state if its Cyclooxygenase Inhibition Assay IC50 [μM] / COX-1 is at or above 80 µM.
Condition met

Has Cc1c2c(c(C)n1-c1ccccc1)C(=O)N(CN1CCNCC1)C2=O [2k] a recorded Cyclooxygenase Inhibition Assay IC50 [μM] / COX-1 greater than or equal to 80 µM?
Condition met

Check if Cyclooxygenase Inhibition Assay IC50 [μM] / COX-1 >= 80 µM (inclusive). Item: Cc1c2c(c(C)n1-c1ccccc1)C(=O)N(CN1CCN(c3cccc(C(F)(F)F)c3)CC1)C2=O [2d]
Condition not met

Is it the case that CCCCn1c(C)c2c(c1C)C(=O)N(CN1CCC(O)(c3ccc(Br)cc3)CC1)C2=O [2n] has Cyclooxygenase Inhibition Assay IC50 [μM] / COX-1 reaching or exceeding 80 µM?
Condition not met

Tell me whether Cyclooxygenase Inhibition Assay IC50 [μM] / COX-1 is at least 80 µM here: Cc1c2c(c(C)n1-c1ccccc1Cl)C(=O)N(CN1CCN(C3CCCCC3)CC1)C2=O [2h]
Condition not met

====

# Assay system: COX-2 (Homo sapiens, UniProt P35354)
# Construct: gene PTGS2; homodimer
# Sequence (P35354 18-604): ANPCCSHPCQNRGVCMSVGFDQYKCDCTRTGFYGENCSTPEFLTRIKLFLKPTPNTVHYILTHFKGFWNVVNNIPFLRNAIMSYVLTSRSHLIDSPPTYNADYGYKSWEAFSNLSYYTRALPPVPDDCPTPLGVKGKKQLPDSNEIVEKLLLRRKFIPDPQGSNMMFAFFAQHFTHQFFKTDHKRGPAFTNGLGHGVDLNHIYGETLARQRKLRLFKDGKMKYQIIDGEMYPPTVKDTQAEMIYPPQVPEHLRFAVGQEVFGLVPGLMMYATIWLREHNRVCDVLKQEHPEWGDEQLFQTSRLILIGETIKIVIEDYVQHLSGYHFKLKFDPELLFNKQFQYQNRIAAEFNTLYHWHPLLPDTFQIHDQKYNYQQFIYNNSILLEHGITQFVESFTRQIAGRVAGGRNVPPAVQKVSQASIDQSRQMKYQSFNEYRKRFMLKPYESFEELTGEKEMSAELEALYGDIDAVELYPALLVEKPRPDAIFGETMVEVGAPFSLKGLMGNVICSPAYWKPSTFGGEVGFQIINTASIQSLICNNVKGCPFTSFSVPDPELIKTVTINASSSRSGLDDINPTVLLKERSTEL
# Protocol details: colorimetric COX peroxidase inhibitor screening kit, […] nm
# Format: biochemical
# Condition parameters: tested at 100 µM only, 2 min, RT; unreliable
Measurement type: Cyclooxygenase Inhibition Assay IC50 [μM] / COX-2 (µM)
State just the number; it will be interpreted in µM.

CCCCn1c(C)c2c(c1C)C(=O)N(CN1CCN(c3ccc(C)cc3)CC1)C2=O; 60.75
Cc1c2c(c(C)n1-c1ccccc1)C(=O)N(CN1CCN(c3ccc(Br)cc3)CC1)C2=O; 60.85
CCCCn1c(C)c2c(c1C)C(=O)N(CN1CCC(O)(c3ccc(Cl)cc3)CC1)C2=O; 58.38
Cc1c2c(c(C)n1-c1ccccc1)C(=O)N(CN1CCNCC1)C2=O; 58.43
CCCCn1c(C)c2c(c1C)C(=O)N(CN1CCC(O)(c3ccc(Br)cc3)CC1)C2=O; 57.65
CCCCn1c(C)c2c(c1C)C(=O)N(CN1CCN(CCO)CC1)C2=O; 59.77

Look up Cyclooxygenase Inhibition Assay IC50 [μM] / COX-2: `Cc1c2c(c(C)n1-c1ccccc1Cl)C(=O)N(CN1CCN(C3CCCCC3)CC1)C2=O`
59.37

I'd like to know its Cyclooxygenase Inhibition Assay IC50 [μM] / COX-2. The molecule in question is `Cc1c2c(c(C)n1-c1ccccc1Cl)C(=O)N(CN1CCN(c3ccc(Br)cc3)CC1)C2=O`
61.46

What value of measured Cyclooxygenase Inhibition Assay IC50 [μM] / COX-2 is listed for `CCCCn1c(C)c2c(c1C)C(=O)N(CN1CCC(c3ccccc3)CC1)C2=O` ?
60.39

====

# Assay system: COX-2 (Homo sapiens, UniProt P35354)
# Construct: gene PTGS2; homodimer
# Protocol details: colorimetric COX peroxidase inhibitor screening kit, […] nm
# Type: biochemical
# Condition parameters: tested at 100 µM only, 2 min, RT; unreliable
Measurement type: Cyclooxygenase Inhibition Assay IC50 [μM] / COX-2 (µM)
API: value field is a number in µM; no unit string.

// lookup Cyclooxygenase Inhibition Assay IC50 [μM] / COX-2 for `Cc1c2c(c(C)n1-c1ccccc1)C(=O)N(CN1CCN(c3ccccc3C#N)CC1)C2=O`
61.53

So what does the record say about Cyclooxygenase Inhibition Assay IC50 [μM] / COX-2 for `Cc1c2c(c(C)n1-c1ccccc1)C(=O)N(CN1CCN(C3CCCCC3)CC1)C2=O` ?
59.92

Looking for the measured Cyclooxygenase Inhibition Assay IC50 [μM] / COX-2 of `CCCCn1c(C)c2c(c1C)C(=O)N(CN1CCN(c3ncccn3)CC1)C2=O` , can you help?
58.87

Given `Cc1c2c(c(C)n1-c1ccccc1)C(=O)N(CN1CCOCC1)C2=O` , state its recorded Cyclooxygenase Inhibition Assay IC50 [μM] / COX-2.
59.33

# input compound: `CCCCn1c(C)c2c(c1C)C(=O)N(CN1CCN(C3CCCCC3)CC1)C2=O` ; wanted: its Cyclooxygenase Inhibition Assay IC50 [μM] / COX-2
60.96

Form field: reported Cyclooxygenase Inhibition Assay IC50 [μM] / COX-2 of `Cc1c2c(c(C)n1-c1ccccc1)C(=O)N(CN1CCN(c3cccc(C(F)(F)F)c3)CC1)C2=O`
60.24

Quick one: Cyclooxygenase Inhibition Assay IC50 [μM] / COX-2 for `CCCCn1c(C)c2c(c1C)C(=O)N(CN1CCC(O)(Cc3ccccc3)CC1)C2=O` ?
59.37

====

Each entry below carries its recorded Cyclooxygenase Inhibition Assay IC50 [μM] / COX-1.
# Assay system: COX-1 (Ovis aries)
# Construct: gene PTGS1; homodimer
# Sequence (P05979 25-600): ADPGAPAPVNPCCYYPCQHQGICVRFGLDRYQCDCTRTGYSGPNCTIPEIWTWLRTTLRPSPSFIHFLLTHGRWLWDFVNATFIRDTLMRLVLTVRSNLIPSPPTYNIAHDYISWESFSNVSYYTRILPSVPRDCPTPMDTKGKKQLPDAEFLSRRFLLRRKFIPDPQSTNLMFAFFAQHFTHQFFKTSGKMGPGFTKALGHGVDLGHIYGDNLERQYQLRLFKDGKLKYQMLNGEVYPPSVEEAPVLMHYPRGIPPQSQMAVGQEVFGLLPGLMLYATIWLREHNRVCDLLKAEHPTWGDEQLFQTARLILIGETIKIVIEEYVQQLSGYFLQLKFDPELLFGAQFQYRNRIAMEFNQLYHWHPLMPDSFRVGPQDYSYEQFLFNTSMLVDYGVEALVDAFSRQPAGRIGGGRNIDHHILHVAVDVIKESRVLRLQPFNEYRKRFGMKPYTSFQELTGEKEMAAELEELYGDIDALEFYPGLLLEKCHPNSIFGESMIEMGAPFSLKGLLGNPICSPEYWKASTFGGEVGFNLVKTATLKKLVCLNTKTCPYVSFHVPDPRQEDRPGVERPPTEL
# Protocol details: colorimetric COX peroxidase inhibitor screening kit, […] nm
# Type: biochemical
# Condition parameters: tested at 100 µM only, 2 min, RT; unreliable
Numeric answer only, unit µM assumed.

Known Cyclooxygenase Inhibition Assay IC50 [μM] / COX-1 results, listed for orientation:
CCCCn1c(C)c2c(c1C)C(=O)N(CN1CCN(C3CCCCC3)CC1)C2=O; 79.87
Cc1c2c(c(C)n1-c1ccccc1)C(=O)N(CN1CCN(C3CCCCC3)CC1)C2=O; 80.25
CCCCn1c(C)c2c(c1C)C(=O)N(CN1CCC(O)(c3ccc(Cl)cc3)CC1)C2=O; 78.25

# Cyclooxygenase Inhibition Assay IC50 [μM] / COX-1 lookup, item `CCCCn1c(C)c2c(c1C)C(=O)N(CN1CCN(c3ccc(C)cc3)CC1)C2=O`
78.73

Quick one: Cyclooxygenase Inhibition Assay IC50 [μM] / COX-1 of `CCCCn1c(C)c2c(c1C)C(=O)N(CN1CCN(c3ncccn3)CC1)C2=O` ?
80.51
